target: human TLR8 (Homo sapiens, UniProt Q9NR97); assay: TLR8 inhibition reporter assay (HEK-Blue cells, SEAP reporter, R848 stimulation); conditions: HEK-Blue cells overexpressing human TLR8, R848 15.9 μM
pIC50: −log10 of the molar value.
Label criterion met when pIC50 is at or above 7; otherwise label criterion not met.

Example cases with answers are listed next.
> print(dat)
                                   compound                              assay.target          class
1  COc1ccc(-c2[nH]c3ccc(C4CCN(C(=O)CCCN(C)C)CC4)cc3c2CC(F)(F)F)cc1OC  human TLR8 (Homo sapiens, UniProt Q9NR97)  criterion met
2  COc1ccc(-c2[nH]c3ccc(C4CCN(C(=O)CNCC(C)O)CC4)cc3c2C(C)C)cc1OC (stereo not shown)  human TLR8 (Homo sapiens, UniProt Q9NR97)  criterion met

Threshold query (pIC50 >= 7) on COc1ccc(-c2[nH]c3ccc(C4CCN(C(=O)CN5CCC[C@@H](C(=O)N6CC7CNCC7C6)C5)CC4)cc3c2C(C)C)cc1OC (stereo partly shown) criterion not met

Determine whether this compound has pIC50 no lower than 7: COc1ccc(-c2[nH]c3ccc(C4CCN(C(=O)CNC5(CO)CCCC5)CC4)cc3c2C(C)C)cc1OC criterion met

Is pIC50 at least 7? Consider COc1ccc(-c2[nH]c3ccc(C4CCN(C(=O)CN5CCC[C@@H](C(=O)N6C(C)CCC6C)C5)CC4)cc3c2C(C)C)cc1OC (stereo partly shown) criterion met

Does COc1ccc(-c2[nH]c3ccc(C4CCN(CC(=O)N5CC[C@H](N(C)C)C5)CC4)cc3c2CC(F)(F)F)cc1OC have a reported pIC50 of at least 7? criterion met

---

Reported IC50 values for a set of molecules
Biological target: human TLR8 (Homo sapiens, UniProt Q9NR97)
Sequence (Q9NR97 27-1041): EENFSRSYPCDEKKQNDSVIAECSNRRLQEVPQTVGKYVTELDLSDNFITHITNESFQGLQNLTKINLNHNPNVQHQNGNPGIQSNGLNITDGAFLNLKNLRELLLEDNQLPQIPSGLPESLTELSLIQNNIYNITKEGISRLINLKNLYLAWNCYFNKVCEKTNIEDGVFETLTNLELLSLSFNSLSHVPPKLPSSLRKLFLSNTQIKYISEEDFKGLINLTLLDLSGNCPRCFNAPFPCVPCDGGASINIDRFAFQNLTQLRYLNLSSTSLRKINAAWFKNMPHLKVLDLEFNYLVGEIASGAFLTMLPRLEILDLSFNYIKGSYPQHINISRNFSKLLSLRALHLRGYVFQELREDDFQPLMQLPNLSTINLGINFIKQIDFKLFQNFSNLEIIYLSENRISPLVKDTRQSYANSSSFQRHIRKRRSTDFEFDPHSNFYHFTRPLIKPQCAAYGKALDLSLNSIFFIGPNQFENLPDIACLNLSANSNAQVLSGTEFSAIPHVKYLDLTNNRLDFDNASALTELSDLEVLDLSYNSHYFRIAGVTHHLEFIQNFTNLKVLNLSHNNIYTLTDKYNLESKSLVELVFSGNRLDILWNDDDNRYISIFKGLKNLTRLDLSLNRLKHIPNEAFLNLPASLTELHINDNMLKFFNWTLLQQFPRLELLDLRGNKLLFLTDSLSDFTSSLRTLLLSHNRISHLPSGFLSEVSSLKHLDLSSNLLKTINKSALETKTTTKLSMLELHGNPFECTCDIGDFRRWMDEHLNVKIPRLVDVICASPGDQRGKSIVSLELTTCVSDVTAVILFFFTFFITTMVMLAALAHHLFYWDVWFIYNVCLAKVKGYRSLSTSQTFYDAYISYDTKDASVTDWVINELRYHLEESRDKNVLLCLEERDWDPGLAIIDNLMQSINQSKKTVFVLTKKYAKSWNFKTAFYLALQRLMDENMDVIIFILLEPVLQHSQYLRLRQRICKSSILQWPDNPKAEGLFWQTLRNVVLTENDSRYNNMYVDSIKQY
Test: TLR8 inhibition reporter assay (HEK-Blue cells, SEAP reporter, R848 stimulation)
Details: HEK-Blue cells overexpressing human TLR8, R848 15.9 μM
Could you give me the number in nM? Just the number is fine.

Previously resolved entries follow.
> print(dat)
                                item.smiles  endpoint.label  value
1  COc1ccc(-c2[nH]c3ccc(C4CCN(C(=O)Cc5cnccn5)CC4)cc3c2CC(F)(F)F)cc1OC            IC50    591
2  COc1ccc(-c2[nH]c3ccc(C4CCN(CC(=O)N5CCC(N(C)C)CC5)CC4)cc3c2CC(F)(F)F)cc1OC            IC50     76
3  CCc1c(-c2ccc(OC)c(OC)c2)[nH]c2c(F)cc(C3CCNCC3)cc12            IC50    620

Moving on to another molecule below.
IC50 for COc1ccc(-c2[nH]c3ccc(C4CCN(C(=O)CCC(F)(F)F)CC4)cc3c2CC(F)(F)F)cc1OC is 2050
